Values compiled from patent EP4737473A1.

# tested target: His-tag recombinant human C3 protein (Homo sapiens, UniProt P01024)
# experiment description: BLI affinity assay (Bio-Layer Interferometry, Ni-NTA biosensor, ForteBio Octet)
# Format: binding
# Parameters: purchased Sino Biological Inc
# measurement conditions: 60s association, 90s dissociation, PBS pH 8.0
Positions of bridges follow the written chain, without caps; N, C: chain ends. Non-standard residues stand in square brackets, D forms with d. Residues, ends and D or L forms follow the SMILES beside them. ξ: configuration not given here. ξTrp(5-F) = NC(Cc1c[nH]c2ccc(F)cc12)C(=O)O; 2Nal = N[C@@H](Cc1ccc2ccccc2c1)C(=O)O; Aib = CC(C)(N)C(=O)O

{"columns": ["molecule", "Kd (nM)"],
 "data": [
  ["CC[C@H](C)[C@H](NC(C)=O)C(=O)N[C@H]1CSSC[C@@H](C(=O)N[C@H](C(N)=O)[C@@H](C)O)NC(=O)[C@H](CCCNC(=N)N)NC(=O)[C@H](Cc2c[nH]cn2)NC(=O)C(C)(C)NC(=O)CNC(=O)C(Cc2c[nH]c3ccc(F)cc23)NC(=O)[C@H](CC(=O)O)NC(=O)[C@H](CCC(N)=O)NC(=O)[C@H](Cc2ccc3ccccc3c2)NC(=O)[C@H](C(C)C)NC1=O (stereo partly shown) [SEQ ID NO.3] (Ac-ICV[2Nal]QD[ξTrp(5-F)]G[Aib]HRCT-NH2; disulfide 2-12)", 45.4]
]}

====

# tested target: His-tag recombinant human C3 protein (Homo sapiens, UniProt P01024)
# experiment description: BLI affinity assay (Bio-Layer Interferometry, Ni-NTA biosensor, ForteBio Octet)
# Assay type: binding
# Design: purchased Sino Biological Inc
# measurement conditions: dissociation rate constant, read-out: kdis
Positions of bridges follow the written chain, without caps; N, C: chain ends. Non-standard residues stand in square brackets, D forms with d. Residues, ends and D or L forms follow the SMILES beside them. ξ: configuration not given here. Trp(7-aza) = N[C@@H](Cc1c[nH]c2ncccc12)C(=O)O; ξTrp(5-F) = NC(Cc1c[nH]c2ccc(F)cc12)C(=O)O; 2Nal = N[C@@H](Cc1ccc2ccccc2c1)C(=O)O; Aib = CC(C)(N)C(=O)O
result type: koff (s⁻¹)

{"columns": ["compound", "result type", "endpoint result"],
 "data": [
  ["CC[C@H](C)[C@H](NC(C)=O)C(=O)N[C@H]1CSSC[C@@H](C(=O)N[C@H](C(N)=O)[C@@H](C)O)NC(=O)[C@H](CCCNC(=N)N)NC(=O)[C@H](Cc2c[nH]cn2)NC(=O)C(C)(C)NC(=O)CNC(=O)C(Cc2c[nH]c3ccc(F)cc23)NC(=O)[C@H](CC(=O)O)NC(=O)[C@H](CCC(N)=O)NC(=O)[C@H](Cc2ccc3ccccc3c2)NC(=O)[C@H](C(C)C)NC1=O (some centres unmarked) [SEQ ID NO.3] (Ac-ICV[2Nal]QD[ξTrp(5-F)]G[Aib]HRCT-NH2; disulfide 2-12)", "koff", 0.0176],
  ["CC[C@H](C)[C@H](NC(C)=O)C(=O)N[C@H]1CSSC[C@@H](C(=O)N[C@H](C(N)=O)[C@@H](C)O)NC(=O)[C@H](CCCNC(=N)N)NC(=O)[C@H](Cc2c[nH]cn2)NC(=O)C(C)(C)NC(=O)CNC(=O)C(Cc2c[nH]c3ccc(F)cc23)NC(=O)[C@H](CC(=O)O)NC(=O)[C@H](CCC(N)=O)NC(=O)[C@H](Cc2c[nH]c3ncccc23)NC(=O)[C@H](C(C)C)NC1=O (some centres unmarked) [SEQ ID NO.2] (Ac-ICV[Trp(7-aza)]QD[ξTrp(5-F)]G[Aib]HRCT-NH2; disulfide 2-12)", "koff", 0.0179]
]}
